- target-or-test-system: T1, cynomolgus alpha2-Antiplasmin (cynomolgus (Macaca fascicularis), UniProt P08697 28-491 (human entry))
- T1 construct: Made in house in the same way as the rabbit protein; also called cynomolgus A2AP; Macaca fascicularis A2AP
- T1 chain: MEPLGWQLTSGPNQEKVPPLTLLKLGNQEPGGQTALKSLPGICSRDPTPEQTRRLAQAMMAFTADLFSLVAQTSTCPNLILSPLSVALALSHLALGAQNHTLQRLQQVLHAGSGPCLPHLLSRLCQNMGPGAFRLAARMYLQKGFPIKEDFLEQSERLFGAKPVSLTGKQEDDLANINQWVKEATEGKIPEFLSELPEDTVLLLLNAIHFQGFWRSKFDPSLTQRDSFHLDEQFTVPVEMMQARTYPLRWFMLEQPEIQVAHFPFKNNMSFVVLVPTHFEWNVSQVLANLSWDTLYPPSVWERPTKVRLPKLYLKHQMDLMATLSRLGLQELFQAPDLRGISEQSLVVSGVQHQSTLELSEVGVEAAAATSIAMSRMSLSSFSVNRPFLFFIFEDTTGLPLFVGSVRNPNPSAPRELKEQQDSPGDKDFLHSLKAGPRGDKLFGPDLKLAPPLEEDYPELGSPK
- test-details: SPR Biacore T200, antibody captured on protein G chip, A2AP as analyte, 25 C
measure-name: Kd (nM)
Quick note: give the figure in nM, leave out the unit.

Past entries and their recorded results:
TPP-17048 hIgG1 (antibody, V domains shown, Germline variant of TPP-14308) VH: EVQLLESGGGLVQPGGSLRLSCAASGFTFSDYAMSWVRQAPGKGLEWVSAIGTGGSTYYADSVKGRFTISRDNSKNTLYLQMNSLRAEDTAVYYCAREGYDSSGYYHLDYWGQGTLVTVSS VL: QSVLTQPPSASGTPGQRVTISCTGSSSNIGATYDVHWYQQLPGTAPKLLIYSNNQRPSGVPDRFSGSKSGTSASLAISGLRSEDEADYYCAAWDWSLSGWVFGGGTKLTVLG	5.8
TPP-17051 hIgG1 (antibody, V domains shown, Germline variant of TPP-14308) VH: EVQLLESGGGLVQPGGSLRLSCAASGFTFDSYAMSWVRQAPGKGLEWVSAIGTGGSTYYADSVKGRFTISRDNSKNTLYLQMNSLRAEDTAVYYCAREGYDSSGYYHLDYWGQGTLVTVSS VL: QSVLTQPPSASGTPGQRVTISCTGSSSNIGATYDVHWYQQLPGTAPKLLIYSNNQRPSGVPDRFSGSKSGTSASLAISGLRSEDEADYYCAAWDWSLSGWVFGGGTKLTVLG	13

Exercise: // returns reported Kd for input TPP-17041 hIgG1 (antibody, V domains shown, Germline variant of TPP-14308) VH: EVQLLESGGGLVQPGGSLRLSCAASGFTFSDYAMSWVRQAPGKGLEWVSAIGTGGGTYYADSVKGRFTISRDNSKNTLYLQMNSLRAEDTAVYYCAREGYDSSGYYHLDYWGQGTLVTVSS VL: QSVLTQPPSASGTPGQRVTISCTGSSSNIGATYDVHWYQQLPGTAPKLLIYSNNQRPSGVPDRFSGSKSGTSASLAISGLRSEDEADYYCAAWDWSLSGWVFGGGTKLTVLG
Key: 7.6
